Assign GI50 to each entry below.
- System: MDA-MB-435
- procedure_text: NCI tumour cell line growth inhibition, 48 h

Query: Return reported GI50. Input compound: CCCCN(CCCC)c1ccc(C(=NC(C)CCCN(CC)CC)c2ccc(N(C)C)cc2)cc1 (stereo unspecified)
Reply: 0.783 µM

Query: Return reported GI50. Input compound: N=C(N)c1ccc(COc2ccccc2OCc2ccc(C(=N)N)cc2)cc1
Reply: 30.2 µM

Query: Return reported GI50. Input compound: Cc1cn2c(/C=N/Nc3ccccn3)c(-c3ccc(Cl)c([N+](=O)[O-])c3)nc2s1
Reply: 30.3 µM

Query: Return reported GI50. Input compound: Cn1cc(-c2ccc(-c3cn(C)c4ccc(Cl)cc34)s2)c2cc(Cl)ccc21
Reply: > 100 µM

Query: Return reported GI50. Input compound: CCCCNC(=O)NS(=O)(=O)c1ccc(N2N=C(c3cc(C)ccc3C)CC2c2cc(OC)c(OC)c(OC)c2)cc1 (stereo unspecified)
Reply: 1.75 µM

Query: Return reported GI50. Input compound: CC(=O)O[C@H]1CC[C@@]2(C)[C@@H](CC[C@@H]3[C@@H]2CC[C@]2(C)C=C(C=O)C[C@@H]32)C1
Reply: 5.01 µM

Query: Return reported GI50. Input compound: Cn1ccnc1C(=O)/C=C/c1ccc(CC(=O)Nc2ccc(C(F)(F)F)cc2)cc1
Reply: 3.88 µM

Query: Return reported GI50. Input compound: C=C1CCC2C3(C)COC(c4ccccc4Br)OC3CCC2(C)C1C/C=C1/C(=O)OCC1OC(C)=O (stereo unspecified)
Reply: 1.48 µM

Query: Return reported GI50. Input compound: CCOC(=O)c1nc(Nc2ccc(Cl)cc2)c2ccccc2n1
Reply: 6.85 µM

Query: Return reported GI50. Input compound: CCCOc1nc(SCCC)nc2c1cnn2-c1ccccc1
Reply: 53.1 µM

Query: Return reported GI50. Input compound: OCC1OC(n2cnc3c(=S)nc[nH]c32)C(O)C1O (stereo unspecified)
Reply: 3.89 µM

Query: Return reported GI50. Input compound: COc1cc(C(=O)/C=C/c2cccnc2Nc2ccccc2)cc(OC)c1OC
Reply: 0.637 µM

Query: Return reported GI50. Input compound: CCOc1cc2c(cc1O)/C(=N/NS(=O)(=O)c1ccc(C)cc1)C[C@@H]1[C@@H]2CC[C@]2(C)[C@@H](O)CC[C@@H]12
Reply: 0.917 µM

Query: Return reported GI50. Input compound: O=C(c1cccnc1)c1cc(-c2ccccn2)c(=O)n2ccccc12
Reply: > 100 µM

Query: Return reported GI50. Input compound: Nc1nc(N)c(N=O)c(OCC2CCCCC2)n1
Reply: 12.8 µM

Query: Return reported GI50. Input compound: CCCc1cc(=O)n2c(C(=O)Nc3ccccc3OC)c(C(=O)Nc3ccc(F)cc3)sc2n1
Reply: 36.5 µM

* * *

- Test system: COLO 205 colon
- procedure_text: NCI tumour cell line growth inhibition, 48 h
readout_kind: TGI (µM)
Respond with the bare value in µM.

Query: Return reported TGI. Input compound: COC(=O)C1(Cc2ccc3c(c2)CCC3)Cc2ccc3c(c2C1)CCC3 (stereo unspecified)
Reply: 39.2

Query: Return reported TGI. Input compound: C/C=C/[C@@H]1OC(=O)C2=C[C@@H](O)[C@@H](/C=C/C)O[C@H]21
Reply: 6.9

Query: Return reported TGI. Input compound: C=C1CCC2[C@@H](CCC3[C@]2(C)CCC[C@]3(C)C(=O)OC)C1CCO (stereo partly specified)
Reply: 27.9

Query: Return reported TGI. Input compound: COc1cc([C@@H]2c3cc4c(cc3[C@@H](OC(=O)c3ccccc3)C3COC(=O)[C@@H]32)OCO4)cc(OC)c1O (stereo partly specified)
Reply: 0.963

Query: Return reported TGI. Input compound: CN(CCCN(C)CCc1ccc(Cl)c(Cl)c1)CCCN1CCCC1
Reply: 6.84

Hello, the source for this data is PubChem BioAssay (NCI), in case you need it.
